Target: Monoamine transporters; serotonin & dopamine (Homo sapiens) (UniProt P31645+Q01959)
Sequence (P31645 whole entry, looked up): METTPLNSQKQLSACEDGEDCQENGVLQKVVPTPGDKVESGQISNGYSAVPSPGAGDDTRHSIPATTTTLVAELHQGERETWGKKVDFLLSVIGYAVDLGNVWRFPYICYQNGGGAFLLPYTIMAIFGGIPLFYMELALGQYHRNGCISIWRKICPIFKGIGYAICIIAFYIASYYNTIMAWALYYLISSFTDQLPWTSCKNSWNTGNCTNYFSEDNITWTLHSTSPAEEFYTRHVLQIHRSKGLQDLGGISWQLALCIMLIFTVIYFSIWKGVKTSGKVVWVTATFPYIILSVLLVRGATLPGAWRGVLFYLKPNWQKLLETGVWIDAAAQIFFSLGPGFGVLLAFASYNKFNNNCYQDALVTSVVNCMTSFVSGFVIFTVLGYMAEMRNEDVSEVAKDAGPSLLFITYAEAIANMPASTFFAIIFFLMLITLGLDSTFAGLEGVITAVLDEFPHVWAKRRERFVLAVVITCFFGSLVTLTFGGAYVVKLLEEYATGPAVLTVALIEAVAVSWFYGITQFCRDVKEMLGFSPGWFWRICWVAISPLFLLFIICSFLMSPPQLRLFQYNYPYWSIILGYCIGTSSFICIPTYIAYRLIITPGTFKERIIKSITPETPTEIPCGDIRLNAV
Sequence (Q01959 whole entry, looked up): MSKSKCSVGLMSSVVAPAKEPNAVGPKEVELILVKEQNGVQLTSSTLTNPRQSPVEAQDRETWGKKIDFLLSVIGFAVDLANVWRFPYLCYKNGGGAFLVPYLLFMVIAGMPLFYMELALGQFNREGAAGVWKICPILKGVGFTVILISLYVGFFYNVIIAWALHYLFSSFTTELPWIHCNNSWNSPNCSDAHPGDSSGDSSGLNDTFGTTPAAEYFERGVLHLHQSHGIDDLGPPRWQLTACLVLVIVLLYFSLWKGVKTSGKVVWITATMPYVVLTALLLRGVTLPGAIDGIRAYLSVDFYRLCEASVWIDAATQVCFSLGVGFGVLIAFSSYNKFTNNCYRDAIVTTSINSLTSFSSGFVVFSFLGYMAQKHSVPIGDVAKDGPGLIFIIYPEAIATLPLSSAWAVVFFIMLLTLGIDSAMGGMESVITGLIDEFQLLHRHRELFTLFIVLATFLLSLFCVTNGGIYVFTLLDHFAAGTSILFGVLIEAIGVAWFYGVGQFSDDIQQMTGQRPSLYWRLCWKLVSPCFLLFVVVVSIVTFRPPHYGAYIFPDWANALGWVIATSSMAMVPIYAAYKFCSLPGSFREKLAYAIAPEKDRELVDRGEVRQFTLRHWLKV
Assay: SERT/DAT ratio of the compound
Assay type: protein assay
Measured Ratio values are reported for all entries that follow.
Answer with a bare number; do not write a unit.

| Compound | Recorded Value |
| --- | --- |
| COC(=O)C1C(c2ccc(Cl)c(Cl)c2)C[C@H]2C[C@@H](O)C1N2C (some centres not stated) | 50 |

As a next step, examine the compound that follows.
IN: In one line, give reported Ratio of the entry COC(=O)[C@H]1C(c2ccc(Cl)c(Cl)c2)CC2C[C@@H](O)[C@H]1N2C (stereo in doubt; (1R)-15a) .
OUT: 0.05

====

Biological target: Sodium-dependent serotonin transporter (Homo sapiens)
Assay: Inhibition of [3H]citalopram binding to the serotonin transporter in rhesus (Macaca mulatta) or cynomolgus monkey (Macaca fascicularis) caudate-putamen.
Type: tissue-based, Cercopithecidae
Details: target entry is the homologue from another species
pIC50: −log10 of the molar value.
Assay Readout: pIC50

| Molecule | Recorded Value |
| --- | --- |
| COC(=O)C1=C(c2ccc(Cl)c(Cl)c2)CC2C[C@@H](O)C1N2C (stereo partly drawn) | < 5.22 |

IN: In one line, give reported pIC50 of the entry COC(=O)C1C(c2ccccc2)CC2[C@@H](O)CC1N2C (stereo in doubt; 34) .
OUT: < 4.70

IN: In one line, give reported pIC50 of the entry COC(=O)C1=C(c2ccc3ccccc3c2)CC2C[C@@H](O)C1N2C (stereo partly drawn) .
OUT: 6.17

====

Target: Sodium-dependent serotonin transporter (Homo sapiens, UniProt P31645)
Sequence (P31645 whole entry): as the sequence (P31645 whole entry, looked up) above
Experiment: Inhibition of [3H]citalopram binding to the serotonin transporter in rhesus (Macaca mulatta) or cynomolgus monkey (Macaca fascicularis) caudate-putamen.
Format: tissue-based, Cercopithecidae
Details: target entry is the homologue from another species
Class (required): determined from IC50; valid ranges are low group = under 0.3 µM, middle group = from 0.3 µM up to 5 µM, high group = 5 µM and over

IN: Classify this compound: COC(=O)C1=C(c2ccc(F)cc2)CC2C[C@@H](O)C1N2C (stereo partly specified)
OUT: high group

IN: Classify this compound: COC(=O)C1=C(c2ccc3ccccc3c2)CC2[C@@H](O)CC1N2C (stereo partly specified)
OUT: low group

IN: Classify this compound: COC(=O)[C@H]1C(c2ccc(Cl)c(Cl)c2)CC2C[C@@H](O)[C@H]1N2C (stereo in doubt; (1R)-18a)
OUT: high group

IN: Classify this compound: COC(=O)C1C(c2ccc3ccccc3c2)CC2[C@@H](O)CC1N2C (stereo in doubt; 17b)
OUT: low group

IN: Classify this compound: COC(=O)[C@H]1C(c2ccc(Cl)c(Cl)c2)CC2C[C@@H](O)[C@H]1N2C (stereo in doubt; (1R)-15a)
OUT: low group

IN: Classify this compound: COC(=O)C1C(c2ccccc2)CC2C[C@@H](O)C1N2C (stereo in doubt; 15d)
OUT: high group

IN: Classify this compound: COC(=O)[C@@H]1C(c2ccc(Cl)c(Cl)c2)C[C@H]2C[C@@H](O)C1N2C (stereo partly specified)
OUT: middle group

IN: Classify this compound: COC(=O)C1=C(c2ccc(Cl)c(Cl)c2)CC2C[C@H](O)[C@H]1N2C
OUT: middle group

IN: Classify this compound: COC(=O)C1C(c2ccc(F)cc2)CC2[C@@H](O)CC1N2C (stereo in doubt; 17c)
OUT: high group

IN: Classify this compound: COC(=O)C1=C(c2ccc(F)cc2)CC2[C@@H](O)CC1N2C (stereo partly specified)
OUT: high group

====

Target: Monoamine transporters; serotonin & dopamine (Homo sapiens) (UniProt P31645+Q01959)
Experiment: SERT/DAT ratio of the compound
Type: protein assay
Returns one of True or False; True when Ratio is >= 10.

| Compound | Group Label |
| --- | --- |
| COC(=O)C1=C(c2ccc(F)cc2)CC2[C@@H](O)CC1N2C (stereo not given in full) | False |
| COC(=O)C1C(c2ccc(Cl)c(Cl)c2)CC2C[C@@H](O)C1N2C (stereo in doubt; 18a) | True |
| COC(=O)C1C(c2ccc(F)cc2)CC2C[C@@H](O)C1N2C (stereo in doubt; 18c) | True |

IN: State whether the measured Ratio reaches 10, counting equality as reaching it, for COC(=O)C1C(c2ccc(Cl)c(Cl)c2)CC2[C@@H](O)CC1N2C (stereo in doubt; 17a)
OUT: True

IN: State whether the measured Ratio reaches 10, counting equality as reaching it, for COC(=O)C1C(c2ccc(Cl)c(Cl)c2)CC2[C@@H](O)CC1N2C (stereo in doubt; 14a)
OUT: True

IN: State whether the measured Ratio reaches 10, counting equality as reaching it, for COC(=O)C1C(c2ccc3ccccc3c2)CC2C[C@@H](O)C1N2C (stereo in doubt; 18b)
OUT: True

IN: State whether the measured Ratio reaches 10, counting equality as reaching it, for COC(=O)C1C(c2ccccc2)CC2C[C@@H](O)C1N2C (stereo in doubt; 18d)
OUT: True

IN: State whether the measured Ratio reaches 10, counting equality as reaching it, for COC(=O)C1C(c2ccc3ccccc3c2)CC2CCC1N2C (stereo in doubt; 13b)
OUT: False

IN: State whether the measured Ratio reaches 10, counting equality as reaching it, for COC(=O)[C@H]1C(c2ccc(Cl)c(Cl)c2)CC2C[C@@H](O)[C@H]1N2C (stereo in doubt; (1R)-18a)
OUT: True

IN: State whether the measured Ratio reaches 10, counting equality as reaching it, for COC(=O)C1C(c2ccc3ccccc3c2)CC2[C@@H](O)CC1N2C (stereo in doubt; 17b)
OUT: False

IN: State whether the measured Ratio reaches 10, counting equality as reaching it, for COC(=O)C1C(c2ccc(Cl)c(Cl)c2)CC2CCC1N2C (stereo in doubt; 16a)
OUT: True

IN: State whether the measured Ratio reaches 10, counting equality as reaching it, for COC(=O)C1C(c2ccc(F)cc2)CC2C[C@@H](O)C1N2C (stereo in doubt; 15c)
OUT: True

IN: State whether the measured Ratio reaches 10, counting equality as reaching it, for COC(=O)C1=C(c2ccccc2)CC2[C@@H](O)CC1N2C (stereo not given in full)
OUT: False

====

Molecular target: UniProtKB P31645
Assay: Inhibition of [3H]citalopram binding to the serotonin transporter in rhesus (Macaca mulatta) or cynomolgus monkey (Macaca fascicularis) caudate-putamen.
Type: tissue-based, Cercopithecidae
Conditions: target entry is the homologue from another species
Measured IC50 values are reported for all entries that follow.
Unit µM implied. Number only.

IN: In one line, give reported IC50 of the entry COC(=O)C1C(c2ccc(Cl)c(Cl)c2)CC2[C@H](O)CC1N2C (stereo partly specified) .
OUT: 10.7

IN: In one line, give reported IC50 of the entry COC(=O)C1C(c2ccccc2)CC2[C@@H](O)CC1N2C (stereo in doubt; 14d) .
OUT: 88

IN: In one line, give reported IC50 of the entry COC(=O)C1C(c2ccc(Cl)c(Cl)c2)C[C@H]2C[C@@H](O)C1N2C (stereo partly specified) .
OUT: 0.015

====

Target: Sodium-dependent serotonin transporter (Homo sapiens, UniProt P31645)
Assay: Inhibition of [3H]citalopram binding to the serotonin transporter in rhesus (Macaca mulatta) or cynomolgus monkey (Macaca fascicularis) caudate-putamen.
Assay type: tissue-based, Cercopithecidae
Settings: target entry is the homologue from another species
pIC50: −log10 of the molar value.
Returns one of yes or no; yes when pIC50 is >= 6.

Observe how each entry below is paired with its result.
| Compound | Test System | Group Label |
| --- | --- | --- |
| COC(=O)C1C(c2ccccc2)CC2[C@@H](O)CC1N2C (stereo in doubt; 17d) | Sodium-dependent serotonin transporter (Homo sapiens, UniProt P31645) | no |
| COC(=O)C1=C(c2ccccc2)CC2[C@@H](O)CC1N2C (stereo partly drawn) | Sodium-dependent serotonin transporter (Homo sapiens, UniProt P31645) | no |
| COC(=O)C1C(c2ccccc2)CC2C[C@@H](O)C1N2C (stereo in doubt; 18d) | Sodium-dependent serotonin transporter (Homo sapiens, UniProt P31645) | no |
| COC(=O)C1=C(c2ccccc2)CC2C[C@@H](O)C1N2C (stereo partly drawn) | Sodium-dependent serotonin transporter (Homo sapiens, UniProt P31645) | no |
| COC(=O)C1C(c2ccc3ccccc3c2)CC2[C@@H](O)CC1N2C (stereo in doubt; 14b) | Sodium-dependent serotonin transporter (Homo sapiens, UniProt P31645) | yes |
| COC(=O)C1C(OC(c2ccc(F)cc2)c2ccc(F)cc2)CC2C[C@@H](O)C1N2C (stereo partly drawn) | Sodium-dependent serotonin transporter (Homo sapiens, UniProt P31645) | no |
| COC(=O)C1=C(c2ccc(Cl)c(Cl)c2)C[C@H]2C[C@@H](O)C1N2C | Sodium-dependent serotonin transporter (Homo sapiens, UniProt P31645) | no |
| COC(=O)C1C(c2ccc(F)cc2)CC2C[C@@H](O)C1N2C (stereo in doubt; 18c) | Sodium-dependent serotonin transporter (Homo sapiens, UniProt P31645) | no |

Now take the following compound into account.
IN: State whether the measured pIC50 reaches 6, counting equality as reaching it, for COC(=O)C1C(c2ccc3ccccc3c2)CC2C[C@@H](O)C1N2C (stereo in doubt; 15b)
OUT: yes
